Reported HT1080 Agonist Assay nBMAX values follow for various binders
- System: T1, OX40 on HT1080 OX40 stable cell line (Homo sapiens (Human), UniProt P43489 29-277)
- T1 sequence: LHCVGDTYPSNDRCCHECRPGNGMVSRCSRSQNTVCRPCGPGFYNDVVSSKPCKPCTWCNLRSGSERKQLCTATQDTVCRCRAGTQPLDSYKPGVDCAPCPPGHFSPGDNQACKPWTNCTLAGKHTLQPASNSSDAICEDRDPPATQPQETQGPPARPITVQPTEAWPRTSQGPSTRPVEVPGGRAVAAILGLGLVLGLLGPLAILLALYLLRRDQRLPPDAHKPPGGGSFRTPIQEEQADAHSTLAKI
- Experimental protocol: cell-based or functional assay
Readout name: HT1080 Agonist Assay nBMAX

Binder	Readout name	Measured result
murine antibody A4 (13C2G10F10) (antibody, V domains shown, also called MAb A4; H4/L4) VH: EVQLQQSGPELVKPGASVKMSCKASGYTFTSYIMHWVKQKPGQGLEWIGYINPYNDGTKYNEKFKGKATLTSDKSSSTAYMELSSLTSEDSAVYYCANYYGSSYTMDYWGQGTSVTVSS VL: DIQMTQTTSSLSASLGDRVTISCRASQDIRNYLNWYQQKPDGSVKLLIYYTSRLHSGVPSRFSGSGSGTDYSLTISNLEQEDIATYFCQQGNTLPWTFGGGTKLEIK	HT1080 Agonist Assay nBMAX	1.52
murine antibody A6 (2G2E2D8) (antibody, V domains shown, also called MAb A6; Murine A6) VH: EVQLQQSGPELVKPGASVKMSCKASGYTFTSYVMHWVKQKPGQGLEWIGYINPYNDGTKYNEKFKGKATLTSDKSSSTAYMELSSLTSEDSAVYYCANYYGSNYAMDYWGQGTSVTVSS VL: DIQMTQTTSSLSASLGDRVTISCRASQDIRNYLNWYQQKPDGTVKLLIYYTSRLHSGVPSRFSGSGSGTDYSLTISNLEQEDIATYFCQQGNTLPWTFGGGTKLEIK	HT1080 Agonist Assay nBMAX	4.54
murine antibody A5 (40H11C2F5) (antibody, V domains shown, also called MAb A5; H5/L5) VH: EVQLQQSGPELVKPGASVKISCKASGYTFTENYMNWVKQSHGKSLEWIGDINRNNGGTRYNQKFKGKATLTVDKSSSTDYMELRSLTSEDSAVYYCGGTVVGYFDVWGTGTTVTVSS VL: DIQMTQIITSLSASLGDRVTISCRSSQDISNYLNWYQQKPDGTVKLLIYYTSRLKSGVPSRFSGSGSGTDYSLTISNLEQEDIATYFCQQGNTLPWTFGGGTKLEIK	HT1080 Agonist Assay nBMAX	3.2
murine antibody A3 (14F2C2D7) (antibody, V domains shown, also called MAb A3; H3/L3) VH: QVQLKESGPGLVAPSQSLSITCTVSGFSLSSYGVHWVRQPPGKGLEWLGVIWAGGSTDYNSALMSRLSISKDNSKSQVVLKMNSLQTDDTAMYYCAREEVWDWGQGTLVTVSA VL: DIQMTQTTSSLSASLGDRVTISCRASQDISNYLNWYQQKPDGTVKLLIYYTSRLQSGVPSRFSGSGSGTDYSLTISNLEQEDIATYFCQQGNTLPLTFGAGTKLELK	HT1080 Agonist Assay nBMAX	4.49
